System: in vitro model of the blood brain barrier (brain capillary endothelial cells co-cultured with glial cells)
assay.comment: In vitro BBB model: passage of p97 tryptic digest peptides, LC-MS/MS peak areas in luminal and abluminal compartments
Type: in vitro ADME, rat
// bucketize Abl 120/Lum120 peak area ratio, 3.0 um insert: bottom bin (below 2), middle bin (2 to below 7), top bin (7 or more)

# substance, label.value
data = [
    ("VPAHAWVR", "middle bin"),
]

# input Sort into band: ADTDGGLIFR (listed as Homo sapiens) [tryptic peptide fragment of human p97]
# output bottom bin

# input Then this substance: LKPEIQCVSAK (listed as Homo sapiens) [tryptic peptide fragment of human p97]
# output middle bin

# input Continue with SSHVTIDTLKGVK (listed as Homo sapiens) [tryptic peptide fragment of human p97]
# output middle bin

# input Now consider RSSHVTIDTLK (listed as Homo sapiens) [tryptic peptide fragment of human p97] and answer again.
# output bottom bin

# input Now this one: ADVTEWR (listed as Homo sapiens) [tryptic peptide fragment of human p97]
# output top bin

# input And for CGDMAVAFR (listed as Homo sapiens) [tryptic peptide fragment of human p97] ?
# output middle bin

# input Likewise for SEDYELLCPNGAR (listed as Homo sapiens) [tryptic peptide fragment of human p97] ?
# output top bin

# input Now the substance WCATSDPEQHK (listed as Homo sapiens) [tryptic peptide fragment of human p97]
# output top bin

###

Each entry below lists one item and its recorded Abl 120/Lum120 peak area ratio, 0.4 um insert value.
System: in vitro model of the blood brain barrier (brain capillary endothelial cells co-cultured with glial cells)
assay.comment: In vitro BBB model: passage of p97 tryptic digest peptides, LC-MS/MS peak areas in luminal and abluminal compartments
Assay type: in vitro ADME, rat

# sequence.text, recorded.measurement
measured = [
    ("DSSHAFTLDELR (listed as Homo sapiens) [tryptic peptide fragment of human p97]", 0.98),
]

# input Which Abl 120/Lum120 peak area ratio, 0.4 um insert value is on record for RSSHVTIDTLK (listed as Homo sapiens) [tryptic peptide fragment of human p97] ?
# output 2.06

# input Also need SSHVTIDTLKGVK (listed as Homo sapiens) [tryptic peptide fragment of human p97] , thanks.
# output 2.42

###

Tested on: in vitro model of the blood brain barrier (brain capillary endothelial cells co-cultured with glial cells)
assay.comment: In vitro BBB model: passage of p97 tryptic digest peptides, LC-MS/MS peak areas in luminal and abluminal compartments
Assay type: in vitro ADME, rat
measurement.kind: Abl 120/Lum120 peak area ratio, 0.4 um insert
Answer with the value's number alone.

Solved entries:
# substance, recorded.measurement
rows = [
    ("VPAHAWVR", 3.32),
    ("WCATSDPEQHK (listed as Homo sapiens) [tryptic peptide fragment of human p97]", 8.92),
    ("LKPEIQCVSAK (listed as Homo sapiens) [tryptic peptide fragment of human p97]", 4.81),
    ("SEDYELLCPNGAR (listed as Homo sapiens) [tryptic peptide fragment of human p97]", 13.05),
    ("ADVTEWR (listed as Homo sapiens) [tryptic peptide fragment of human p97]", 12.76),
]

# input Name the recorded Abl 120/Lum120 peak area ratio, 0.4 um insert for YYDYSGAFR (listed as Homo sapiens) [tryptic peptide fragment of human p97] .
# output 7.40

# input Also ADTDGGLIFR (listed as Homo sapiens) [tryptic peptide fragment of human p97] , if possible.
# output 1.95

# input Also check CGDMAVAFR (listed as Homo sapiens) [tryptic peptide fragment of human p97]
# output 2.26
